// provenance: ChEMBL document CHEMBL3272272

Exercise: for every item that follows, state its recorded RBA.
Organism: Oryctolagus cuniculus
protocol details: Relative binding affinity at rabbit angiotensin […] receptor in aorta strips under exclusion of long wavelength UV light relative to control
Format: tissue-based
Non-standard residues stand in square brackets, D forms with d. Residues, ends and D or L forms follow the SMILES beside them. Phe(4-NO2) = N[C@@H](Cc1ccc([N+](=O)[O-])cc1)C(=O)O; Phe(4-NH2) = Nc1ccc(C[C@H](N)C(=O)O)cc1; Sar = CNCC(=O)O
Respond numerically; units are % and should not be typed.

Given CNCC(=O)N[C@@H](CCCNC(=N)N)C(=O)N[C@H](C(=O)N[C@@H](Cc1ccc(N)cc1)C(=O)N[C@H](C(=O)N[C@@H](Cc1cnc[nH]1)C(=O)N1CCC[C@H]1C(=O)N[C@@H](Cc1ccc(N)cc1)C(=O)O)C(C)C)C(C)C (H-[Sar]RV[Phe(4-NH2)]VHP[Phe(4-NH2)]-OH) , state its recorded RBA. 8.7

Given CNCC(=O)N[C@@H](CCCNC(=N)N)C(=O)N[C@H](C(=O)N[C@@H](Cc1ccc(O)cc1)C(=O)N[C@H](C(=O)N[C@@H](Cc1cnc[nH]1)C(=O)N1CCC[C@H]1C(=O)N[C@@H](Cc1ccc(N)cc1)C(=O)O)C(C)C)C(C)C , state its recorded RBA. 37

Given CNCC(=O)N[C@@H](CCCNC(=N)N)C(=O)N[C@H](C(=O)N[C@@H](Cc1ccc([N+](=O)[O-])cc1)C(=O)N[C@H](C(=O)N[C@@H](Cc1cnc[nH]1)C(=O)N1CCC[C@H]1C(=O)N[C@@H](Cc1ccc([N+](=O)[O-])cc1)C(=O)O)C(C)C)C(C)C (H-[Sar]RV[Phe(4-NO2)]VHP[Phe(4-NO2)]-OH) , state its recorded RBA. 0.06
